Just for reference, the RNAGym collection of RNA variant scans (doi:10.7554/elife.80360) is where these values come from.

B1: HDV Ribozyme (parent)
chain: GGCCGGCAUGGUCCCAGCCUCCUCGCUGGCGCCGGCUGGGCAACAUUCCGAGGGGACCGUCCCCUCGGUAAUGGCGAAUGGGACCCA

variants of: B1; experiment: self-cleavage, relative activity (ratio to wild type); higher = more cleavage; co-transcriptional
Please map values of self-cleavage to classes as shown: group A: < 0.4; group B: ≥ 0.4 and < 0.8; group C: ≥ 0.8

{"columns": ["sequence-entry", "label-class"],
 "data": [
  ["GGCCGGCAUGGUCCCAGCCUCCUCGCUAGCGCCGGCUGGGCAACAUUCCGAGGGGACCGUGCCCUCGGUAAUGGCGAAUGGGACCCA [G28A C61G]", "group A"],
  ["GGCCGGCAUGAUCCCAGCCUCCUCGCUGGCGCCGGCUGGGCAACAUUCCGAGGCGACCGUCCCCUCGGUAAUGGCGAAUGGGACCCA [G11A G54C]", "group B"],
  ["GGCCGGCAUGGUCCCAGCCUCCUCGCUGGCGCCGGCUGGGCAACAUUCCUAGGGGACCGUCCCCUCGGUAAUGGCGAACGGGACCCA [G50U U79C]", "group B"],
  ["GGCCGGCAUGGUCCCUGCCUCCUCGCUGGCGCCGGCUGGGCAACAUUCCGAGCGGACCGUCCCCUCGGUAAUGGCGAAUGGGACCCA [A16U G53C]", "group C"],
  ["GGCCGGCAUGGUCGCAGCCUCCUCGCUGGCGCCGGCUGGGCAACAUUCCGAAGGGACCGUCCCCUCGGUAAUGGCGAAUGGGACCCA [C14G G52A]", "group B"],
  ["GGCCGGCAUGGUCCCAGCCUCCUCGCUGGCGCCGGCUGGGCAACAUUCCGAGGGGACCGUCGCCUCGGUAAUGGCGAAUGGGACCCU [C62G A87U]", "group B"],
  ["CGCCGGCAUGGUCCCAGUCUCCUCGCUGGCGCCGGCUGGGCAACAUUCCGAGGGGACCGUCCCCUCGGUAAUGGCGAAUGGGACCCA [G1C C18U]", "group A"],
  ["GGCCGGCAUGGUCCCAGCCUCCUCGCUGGCGCCGGCUGGGCAACAUUCCGAGGGAACCGUCCCGUCGGUAAUGGCGAAUGGGACCCA [G55A C64G]", "group C"],
  ["GGCCGGCAUGGUCCCAGCCUCCUCGCUGGCGCCGGCUGGGCAACAUUCCGAGGGGACCGUCGCCUCGGUAAUGGCGAAUGCGACCCA [C62G G81C]", "group A"],
  ["GGCCGGCAUGGUCCCAGCCUCCUCGCUGGCGCCGGCUGGGCAACAUUCCGAGGCGACCGUCCCCUCGGUAAUGGCUAAUGGGACCCA [G54C G76U]", "group C"],
  ["GGCCGGCAUGAUCCCAGCCUCGUCGCUGGCGCCGGCUGGGCAACAUUCCGAGGGGACCGUCCCCUCGGUAAUGGCGAAUGGGACCCA [G11A C22G]", "group A"],
  ["GGCCGGCAUGGUCCCAGCCUCCUCGCUGGCACCGGCUGGGCAACAUUCCCAGGGGACCGUCCCCUCGGUAAUGGCGAAUGGGACCCA [G31A G50C]", "group B"],
  ["GGCCGGCAUGGUCCCAGCCUCCUCGCUGGCGCCGGUUGGGCAACAUUCCGAGGGGACCGUCCCCUCGGUAAUGGCGAAUGGGACCCG [C36U A87G]", "group B"],
  ["GGCCGGCAUGGUCCCAGCCUCCUCGCUGGCGCCUGCUGGGCAACAUUCCGAGGGGACCGUCCCCUCGGUAAUGGCGAAUGGGACACA [G34U C85A]", "group A"],
  ["GGCCGGCAUGGUCCCAGCCACCUCGCUGGCGCUGGCUGGGCAACAUUCCGAGGGGACCGUCCCCUCGGUAAUGGCGAAUGGGACCCA [U20A C33U]", "group A"],
  ["GGCCGGCAUGGUCCCUGCCUCCUCGCUGGCGCCGGCUGGGCAACAUUCCGAGGGGACCGUCCCCUCGGGAAUGGCGAAUGGGACCCA [A16U U69G]", "group C"],
  ["GGCCGGCAUGGACCCAGCCUCCUCGCUGGCGCCGGCUGGGCAACAUUGCGAGGGGACCGUCCCCUCGGUAAUGGCGAAUGGGACCCA [U12A C48G]", "group B"],
  ["GGCCGGCAUGGCCCCUGCCUCCUCGCUGGCGCCGGCUGGGCAACAUUCCGAGGGGACCGUCCCCUCGGUAAUGGCGAAUGGGACCCA [U12C A16U]", "group C"],
  ["GGCCGGCAUGGUCCCAGCCUCCUCGCUGGCGCCGGCUGGGCAACAAUCCGAGGGGACCGUCCCCUCGGUAAUGGCCAAUGGGACCCA [U46A G76C]", "group B"],
  ["GGCCGGCAUGGUCCCAGCCUCCUCGCUGGCGCCGGCUGGGCAACAUUCCGAGGGGACCGUGCCCUCGGUAAUGGCGAAUGGGACCUA [C61G C86U]", "group B"],
  ["GGCCGGCAUGGUCCCAGCCUACUCGCUGGCGGCGGCUGGGCAACAUUCCGAGGGGACCGUCCCCUCGGUAAUGGCGAAUGGGACCCA [C21A C32G]", "group A"],
  ["GGCCUGCAUGGUCCCAGCCUCCUCGCUGGCGCCGGCUGGGCAACAUUCCGAGGGGACCGUCCCCUGGGUAAUGGCGAAUGGGACCCA [G5U C66G]", "group B"],
  ["GGCGGGCAUGGUCCCAGCCUCCUCGCUGGCGCCGGCUGGACAACAUUCCGAGGGGACCGUCCCCUCGGUAAUGGCGAAUGGGACCCA [C4G G40A]", "group A"],
  ["GGCCGGCAUGGUCCCAGCCUCCUCGCUGGCGUCGGCUGGGCAACAUUCCGAGGGGACCGUCCCCUCGGUAAUGGCUAAUGGGACCCA [C32U G76U]", "group B"],
  ["GGCCGUCAUGGUCCCAGCCUCCUCGCUGGCGCCGGCUGGGCAACAUUCCGAGGGGACCGUCCCCUCGGUAUUGGCGAAUGGGACCCA [G6U A71U]", "group B"],
  ["GGCCGGCAUGGUCCCAGCCUCCUCGCUGGCGCCGGCUGGGCAACAUUCCGAGAAGACCGUCCCCUCGGUAAUGGCGAAUGGGACCCA [G53A G54A]", "group C"],
  ["GGCCGGCAUGGACCCAGCCUCCUCGCUGGCGCCGGCUGGGCAACAUUCCGAGGGGACCGUCGCCUCGGUAAUGGCGAAUGGGACCCA [U12A C62G]", "group A"],
  ["GGCCGGCAUAGUCCCAGCCUCCUCGCUGGCGCCGGCUGGGCAACAUUCCGAGGGGACCGUCCCCUCGGUAAUGGUGAAUGGGACCCA [G10A C75U]", "group A"],
  ["GGCUGGCAUGGUCCCAGCCUCCUCGCUGGCGCCGGCUGGGCAACAUUCCUAGGGGACCGUCCCCUCGGUAAUGGCGAAUGGGACCCA [C4U G50U]", "group B"],
  ["GGCCGGCAUGGUCCCAGCCUCCUCGCUGGCGCCGGCUGGGCAACAUUCGGAGGGGACCGUCCCCUCGGUAACGGCGAAUGGGACCCA [C49G U72C]", "group A"],
  ["GGCCGGCAUGGUCCGAGCCUCCUCGCUGGCGCCGGCUGGACAACAUUCCGAGGGGACCGUCCCCUCGGUAAUGGCGAAUGGGACCCA [C15G G40A]", "group B"],
  ["GGCCGGCAUGGUCCCAGACUCCUCGCUGGCGCCGGGUGGGCAACAUUCCGAGGGGACCGUCCCCUCGGUAAUGGCGAAUGGGACCCA [C18A C36G]", "group A"],
  ["GGCCGGCAUGGUCCCAGCCUCCUCGCUGGCGCCGGCUGGGAAACAUCCCGAGGGGACCGUCCCCUCGGUAAUGGCGAAUGGGACCCA [C41A U47C]", "group C"],
  ["GGCCGGCAUGGUCCCAGCCUCCUCGCUGGCGCCGGCUGGGCAACUUUCCGAGGGGACCGUCCCCUCGGUAAUGGCGAAUGGGACUCA [A45U C85U]", "group C"],
  ["GGCCGGCAUGGUCCCAGCCUCCUCGCUGGCUCCGGCUGGGCAACAUCCCGAGGGGACCGUCCCCUCGGUAAUGGCGAAUGGGACCCA [G31U U47C]", "group A"],
  ["GGCCGGCAUGGUCCCAGCCUUCUCGCUGGCGCCGGCUGGGCAACAUACCGAGGGGACCGUCCCCUCGGUAAUGGCGAAUGGGACCCA [C21U U47A]", "group A"],
  ["GGUCGGCAUGGUCCCAGCCUCCUCGCUGGUGCCGGCUGGGCAACAUUCCGAGGGGACCGUCCCCUCGGUAAUGGCGAAUGGGACCCA [C3U C30U]", "group A"],
  ["GGCCGGCAUGGUCCCAGCCUCCUCGCUGGCGCCGGCUGGGCAACAUUCCGAGGGGCCCGUCCCCUCGCUAAUGGCGAAUGGGACCCA [A56C G68C]", "group B"],
  ["GGCCGGCAUGGUCCCAGCCUCCUCGCUGGCGCCGGCCGGGCAACAUUCCGAGGGGACCGUCCCCUCGGUAAUGGCGAAUGGGACCGA [U37C C86G]", "group C"],
  ["GGCCGGCAUGGUCCCAGCCACCUCGCUGGCGCCGGCUGGGCAACAUUCCGAGGGGACCGUCCCCUCGGUAAUGGCGAACGGGACCCA [U20A U79C]", "group A"]
]}
